Conditions: buffer; pH 7.4; 200.0 µM
READOUT TYPE: solubility kinetic

Use the examples below as a reference point.
• CC(C)c1nc2ccccc2n1CC(O)COC1CCCCC1 (centres undefined) = > 47.5 µg/mL
• CCOC(=O)CNC(=S)NN(C)C = > 30.8 µg/mL

Please give solubility kinetic for each item listed below.
1. O=C(Cc1ccccc1)NCc1ccccn1
2. On1c(-c2ccccc2)nc2ncccc21
3. Cc1ccc(C2C(C#N)=C(N)Oc3cc(C)oc(=O)c32)o1 (centres undefined)
4. Cc1ccc(F)cc1NC(=O)CCc1c(C)[nH]c(=O)c(C#N)c1C
5. O=[N+]([O-])c1ccc(CCn2ccnc2)cc1
6. COc1ccc(-n2cc(-c3ccc(Br)cc3)[nH]c2=S)cc1
7. O=C(NCc1ccco1)/C(=C\c1cccs1)NC(=O)c1ccccc1

[reply]
> 33.9 µg/mL
> 31.7 µg/mL
> 42.6 µg/mL
> 49.1 µg/mL
> 32.6 µg/mL
< 0.4 µg/mL
> 52.9 µg/mL

Please look at the items below and tell me solubility kinetic for each one, in order.
1. CC(=O)c1c(C)[nH]c(C(=O)CN(C)CC(=O)Nc2ccccc2Cl)c1C
2. COc1cc(C)c(NC(=O)C(=S)NCc2ccccc2)cc1C
3. CCc1ccc(NC(=O)Nc2ccc3c(c2)CCC3)cc1
4. CN1CCN(CCOc2ccc(-c3ccccc3)cc2)CC1.Cl
5. Cc1ccc(CN2C(=O)C(=O)N(CC(N)=O)C2=O)cc1

[reply]
> 56.4 µg/mL
< 0.4 µg/mL
< 0.3 µg/mL
> 49.9 µg/mL
> 41.3 µg/mL

For every item below, please supply its solubility kinetic.
1. Nc1cc(N)nc(SCC(=O)NCc2ccco2)n1
2. O=C(COC(=O)c1c[nH]c2ccccc12)NC1CCCC1
3. O=C(Nc1ccc(Cl)cc1)c1ccc(Br)cc1F

[reply]
1. > 41.9 µg/mL
2. > 42.9 µg/mL
3. < 0.7 µg/mL

Go through the items and report each one's solubility kinetic.
1. COc1ccc(CC(=O)NCC(=O)NC(Cc2ccccc2)C(=O)O)cc1 (centres undefined)
2. O=S(=O)(c1cccc(C(F)(F)F)c1)c1ccc(O)cn1
3. Cc1ccccc1NC(=O)N1CCN(C/C=C/c2ccccc2)CC1
4. CCc1ccc(C(=O)Nc2ccc(C)c(NS(C)(=O)=O)c2)cc1
5. N=C1C(c2nc3ccccc3s2)=C(O)CN1C1CCC(O)CC1 (centres undefined)
6. COc1ccc(NS(=O)(=O)c2cccc(NC(=O)COc3ccccc3[N+](=O)[O-])c2)cc1
7. CCn1c(N2CCN(C(=O)c3ccco3)CC2)nc2ccccc21

[reply]
["> 55.6 µg/mL", "41.1 µg/mL", "> 50.3 µg/mL", "39.7 µg/mL", "5.1 µg/mL", "2.9 µg/mL", "35.8 µg/mL"]
